target: DNA-binding protein inhibitor ID-4 (Homo sapiens) (UniProt P47928); test: PubChem AID 624137; conditions: small molecule microarray, Flag-ID4 binding, fluorescence F/B;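 further: a binder raises fluorescence above local background on the spot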
Sequence (P47928 whole entry, looked up): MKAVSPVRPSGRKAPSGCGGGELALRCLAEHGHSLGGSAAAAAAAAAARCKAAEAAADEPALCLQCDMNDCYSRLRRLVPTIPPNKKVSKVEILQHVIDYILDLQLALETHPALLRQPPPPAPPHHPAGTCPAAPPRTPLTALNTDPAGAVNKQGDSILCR
Among all 31,000 compounds or so, about 360 (1.2%) were called active. How the calls were made is not given here. The list comes from a sample in which actives are over-represented; it also holds close analogues and randomly drawn compounds.
Outcome codes: 1 (active), 0 (inactive)

{"item.smiles": "O=C(C[C@H]1CC[C@H](NC(=O)C2CCC2)[C@@H](CO)O1)NCCCN1CCOCC1", "label.class": 0}
{"item.smiles": "Cc1ccc(Cc2cncc(O)c2)cc1S(=O)(=O)O", "label.class": 1}
{"item.smiles": "O=[N+]([O-])c1ccccc1/C=C/CN1CCC(O)CC1", "label.class": 1}
{"item.smiles": "Cc1ccccc1-c1ccc2c(c1)O[C@H](CN(C)C)[C@@H](C)CN([C@H](C)CO)S2(=O)=O", "label.class": 0}
{"item.smiles": "O=C(C[C@H]1C=C[C@@H](NC(=O)C2CC2)[C@H](CO)O1)NCC1CC1", "label.class": 0}
{"item.smiles": "CO[C@@H]1CN(C)C(=O)c2ccc(NC(=O)C3CC3)cc2OC[C@@H](C)N(CC2CCOCC2)C[C@H]1C", "label.class": 0}
{"item.smiles": "C[C@@H]1CN([C@@H](C)CO)C(=O)Cc2cc(NC(=O)Cc3ccccc3)ccc2O[C@H]1CN(C)Cc1ccc(C(=O)O)cc1", "label.class": 1}
{"item.smiles": "COc1ccc(CN(C)C[C@@H]2Oc3ccc(NC(=O)Nc4ccc5c(c4)OCO5)cc3CC(=O)N([C@H](C)CO)C[C@H]2C)cc1", "label.class": 1}
{"item.smiles": "CC(C)NC(=O)N(C)C[C@H]1Oc2ncc(C#CC3CC3)cc2C(=O)N([C@H](C)CO)C[C@@H]1C", "label.class": 0}
{"item.smiles": "Cc1cccc(NC(=O)CSc2nnc(-c3ccccc3)n2C2CCCCC2)c1C", "label.class": 0}
{"item.smiles": "COc1ccccc1S(=O)(=O)N[C@@H]1C=C[C@H](CC(=O)N2CCOCC2)O[C@@H]1CO", "label.class": 0}
{"item.smiles": "CC(C)CC#Cc1cnc2c(c1)C(=O)N([C@@H](C)CO)C[C@H](C)[C@@H](CN(C)C(=O)c1ccc(F)cc1)O2", "label.class": 0}
{"item.smiles": "COc1cccc(S(=O)(=O)N[C@H]2C=C[C@H](CC(=O)NC3Cc4ccccc4C3)O[C@@H]2CO)c1", "label.class": 0}
{"item.smiles": "COc1ccc(NC(=O)N[C@@H]2C=C[C@H](CC(=O)NC3CCC3)O[C@@H]2CO)cc1", "label.class": 0}
{"item.smiles": "C[C@H](O)C#Cc1cnc2c(c1)C(=O)N([C@H](C)CO)C[C@@H](C)[C@H](CN(C)CC1CCCCC1)O2", "label.class": 0}
{"item.smiles": "C[C@@H]1CN([C@H](C)CO)C(=O)Cc2cc(NC(=O)Nc3ccc(F)cc3)ccc2O[C@@H]1CN(C)Cc1ccc2c(c1)OCO2", "label.class": 0}
{"item.smiles": "C[C@@H]1CN([C@H](C)CO)C(=O)c2cc(-c3ccncc3)cnc2O[C@H]1CN(C)C", "label.class": 0}
{"item.smiles": "CCCNC(=O)C[C@@H]1C[C@@H]2c3cc(N(C)C)ccc3O[C@@H]2[C@H](CO)O1", "label.class": 0}
